System: HeLa
Assay: Hoechst 33342 nuclear staining
Assay type: cell-based, human
Details: Homo sapiens, 48 h read-out
parameterMeasured: EC50

Study these solved cases before continuing.
* COc1ccc(Nc2cncc(-c3cccc(NS(C)(=O)=O)c3)c2)cc1 [Example 1] | 0.1 to 1 µM
* COc1ccc(Nc2cncc(-c3cccc(NC(=O)c4ccccc4)c3)c2)cc1 [Example 2] | 0.01 to 0.1 µM

Now look at this entry.
QUERY: Any idea what EC50 was measured for COc1ccc(Nc2cncc(-c3cccc(Nc4ccccn4)c3)c2)cc1 [Example 3] ?
RESULT: 0.1 to 1 µM

---

Test system: Jurkat
Assay: MTS proliferation assay
Assay type: cell-based, human
Conditions: 72 h read-out
In this section, each of the molecules is paired with its reported IC50.

Study these solved cases before continuing.
* COc1ccc(Nc2cncc(-c3cccc(NC(=O)c4cccnc4)c3)c2)cc1 [Example 13] | 10 to 100 nM
* CCS(=O)(=O)Nc1cccc(-c2cncc(Nc3ccc(OC)cc3)c2)c1 [Example 4] | 10 to 100 nM
* COc1ccc(Nc2cncc(-c3cccc(NC(=O)C(C)C)c3)c2)cc1 [Example 26] | 10 to 100 nM

QUERY: Lookup: IC50 / Jurkat / COc1ccc(Nc2cncc(-c3cccc(NC(=O)c4ccccn4)c3)c2)cc1 [Example 17]
RESULT: < 10 nM

QUERY: Lookup: IC50 / Jurkat / COc1ccc(Nc2cncc(-c3cccc(NC(=O)Cc4ccccc4)c3)c2)cc1 [Example 15]
RESULT: 100 to 1000 nM

---

Tested on: PBL
Assay: Hoechst 33342 nuclear staining
Assay type: cell-based, human
Conditions: Homo sapiens, 48 h read-out
Method: This assay is performed in 96 well tissue culture plates. Appropriate number of cells (adherent cells: 3-5*10^3, suspension cells: 8-10*10^3) are being seeded out in 80 μl complete medium. […] The assay plates are then further incubated for 30 minutes and subsequently analyzed with a standard inverted fluorescence microscope. The readout allows the determination of the fraction of apoptotic nuclei as well as other morphological criteria specific for apoptosis as a function of the treatment. […]
In this section, each of the compounds is paired with its reported EC50.

Study these solved cases before continuing.
* COc1ccc(Nc2cncc(-c3cccc(NS(C)(=O)=O)c3)c2)cc1 | > 1000 nM
* COc1ccc(Nc2cncc(-c3cccc(Nc4ccccn4)c3)c2)cc1 | > 1000 nM

Now look at this entry.
QUERY: Any idea what EC50 was measured for COc1ccc(Nc2cncc(-c3cccc(NC(=O)c4ccccc4)c3)c2)cc1 ?
RESULT: > 1000 nM

---

In this section, each of the compounds is paired with its reported pIC50.
System: HT1080
Assay: MTS proliferation assay
Format: cell-based, human
Conditions: HT1080, 72 h read-out
pIC50: −log10 of the molar value.

Study these solved cases before continuing.
- CCS(=O)(=O)Nc1cccc(-c2cncc(Nc3ccc(OC)cc3)c2)c1 [Example 4]: 7.00 to 8.00
- COc1ccc(Nc2cncc(-c3cccc(NC(=O)c4cccnc4)c3)c2)cc1 [Example 13]: 6.00 to 7.00
- COc1ccc(Nc2cncc(-c3cccc(NC(=O)Cc4ccccc4)c3)c2)cc1 [Example 15]: 6.00 to 7.00

QUERY: Lookup: pIC50 / HT1080 / COc1ccc(Nc2cncc(-c3cccc(NC(=O)c4cccc(OC)c4)c3)c2)cc1 [Example 25]
RESULT: < 6.00

QUERY: Lookup: pIC50 / HT1080 / COc1ccc(Nc2cncc(-c3cccc(NC(=O)c4ccccn4)c3)c2)cc1 [Example 17]
RESULT: 7.00 to 8.00

QUERY: Lookup: pIC50 / HT1080 / COc1ccc(Nc2cncc(-c3cccc(NC(=O)c4ccco4)c3)c2)cc1 [Example 14]
RESULT: 6.00 to 7.00

QUERY: Lookup: pIC50 / HT1080 / COc1ccc(Nc2cncc(-c3cccc(NC(C)=O)c3)c2)cc1 [Example 8]
RESULT: 6.00 to 7.00

QUERY: Lookup: pIC50 / HT1080 / CCOc1ccccc1C(=O)Nc1cccc(-c2cncc(Nc3ccc(OC)cc3)c2)c1 [Example 10]
RESULT: 7.00 to 8.00

QUERY: Lookup: pIC50 / HT1080 / COc1ccc(Nc2cncc(-c3cccc(NS(=O)(=O)c4ccccc4)c3)c2)cc1 [Example 23]
RESULT: 6.00 to 7.00

QUERY: Lookup: pIC50 / HT1080 / COc1ccc(Nc2cncc(-c3cccc(NC(=O)c4cccs4)c3)c2)cc1 [Example 22]
RESULT: 7.00 to 8.00

QUERY: Lookup: pIC50 / HT1080 / COc1ccc(Nc2cncc(-c3cccc(NC(=O)c4cccnc4Cl)c3)c2)cc1 [Example 11]
RESULT: 7.00 to 8.00
